B1: Zinc finger MYM-type protein 3, residues 405 to 444; numbered along this chain, Q14202 (parent)
chain: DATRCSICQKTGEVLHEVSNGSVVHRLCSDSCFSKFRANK

# Variants of: B1
# EXPERIMENT_NOTES: abundance fitness (aPCA) (normalised: wild type 0, dead -1); higher = more abundant; growth selection in yeast, the domain comes from the species named
# APPLIED_CONDITIONS: Homo sapiens
The following variants are shown together with reported abundance fitness values.
Would you mind answering with just the numeric figure?

Here is how some variants turned out for abundance fitness.
Q9H = -0.194
C28H = -0.733
S31C = -0.185
H16K = -0.158
V23Y = -0.166

Consider the additional variant presented here.
Sample R26K ; abundance fitness observed: 0.013
